TARGET: HDAC11 (Homo sapiens, UniProt Q96DB2)
Construct: purchased PBS Biosciences [sic]
Sequence (Q96DB2 whole entry): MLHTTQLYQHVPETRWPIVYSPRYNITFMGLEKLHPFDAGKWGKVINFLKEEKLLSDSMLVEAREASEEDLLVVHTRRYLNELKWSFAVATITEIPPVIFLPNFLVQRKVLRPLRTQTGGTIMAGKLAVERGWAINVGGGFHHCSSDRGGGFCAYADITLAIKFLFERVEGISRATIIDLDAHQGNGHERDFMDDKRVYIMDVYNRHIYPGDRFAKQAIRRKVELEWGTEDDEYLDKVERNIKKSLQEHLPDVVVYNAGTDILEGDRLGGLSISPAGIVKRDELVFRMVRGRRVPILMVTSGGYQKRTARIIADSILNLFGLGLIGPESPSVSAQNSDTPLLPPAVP
RUN DESCRIPTION: HDAC enzyme inhibition assay, HDAC11
Assay type: biochemical
EXPERIMENTAL CONDITIONS: read-out: IC50 (µM) HDAC11 (Class IV)
READOUT NAME: IC50

If you can, please state the reported IC50 value of O=C(CCCCSc1nc2ccccc2c(=O)n1Cc1ccc(F)cc1)NO .
~3 µM

====

System: MCF-7 cells
RUN DESCRIPTION: Antiproliferative assay (CELLOMAX viability), MCF-7
Assay type: cell-based, human
EXPERIMENTAL CONDITIONS: MCF-7, 48 h; read-out: IC50 (µM), antiproliferative activity against MCF-7
Description: The MCF-7 cell line was obtained from Korean Cell Line Bank (KCLB, Seoul, Korea). […] We evaluated the antiproliferative activity of compound 8 against a variety of cells. The MCF-7 cell line was obtained from ATCC. […] Cell viability was measured using the CELLOMAXTM Viability Assay kit (Precaregene Co., Seoul, Korea). UV absorption at 450 nm wavelength was measured using an Infinite M200 microplate reader (Tecan, Zürich, Switzerland). […]
READOUT NAME: IC50 (µM)
# output: bare number, implied unit µM

Fill in: IC50 of O=C(CCCCSc1nc2ccccc2c(=O)n1Cc1ccc(F)cc1)NO is ___
3.44

====

Each record here notes measured melting point.

O=C(CSc1nc2ccccc2c(=O)n1Cc1cccc(F)c1)NO [Compound 3]; 177 to 180 °C
O=C(CCCCSc1nc2ccccc2c(=O)n1Cc1ccc(-c2ccccc2)cc1)NO [Compound 10]; 180 to 182 °C
O=C(CCCCSc1nc2ccccc2c(=O)n1Cc1cccc(F)c1)NO [Compound 9]; 145 to 147 °C
O=C(CCCCn1c(-c2ccc(F)cc2)nc2ccccc2c1=O)NO [Compound 14]; 156 to 158 °C
Cc1ccc(Cn2c(SCC(=O)NO)nc3ccccc3c2=O)cc1 [Compound 6]; 184 to 186 °C
O=C(CSc1nc2ccccc2c(=O)n1Cc1ccccc1[N+](=O)[O-])NO [Compound 5]; 176 to 179 °C
O=C(CN1CCN(CCn2c(-c3ccc(F)cc3)nc3ccccc3c2=O)CC1)NO [Compound 11]; 120 to 122 °C
COc1ccc(-c2nc3ccccc3c(=O)n2CCCCC(=O)NO)cc1 [Compound 13]; 173 to 175 °C

Query: melting point; subject: O=C(CSc1nc2ccccc2c(=O)n1Cc1ccccc1)NO [Compound 1]
188 to 191 °C

Could you tell me which melting point is on file for O=C(CSc1nc2ccccc2c(=O)n1Cc1ccc(F)c(F)c1)NO [Compound 4] ?
184 to 186 °C

Quick one: melting point of O=C(CCCCSc1nc2ccccc2c(=O)n1Cc1ccc(F)cc1)NO [Compound 8] ?
138 to 140 °C

# get_value(readout='melting point', item= O=C(CCCCn1c(-c2ccco2)nc2ccccc2c1=O)NO [Compound 15] )
195 to 197 °C

====

System: SKOV3 cells
RUN DESCRIPTION: Antiproliferation, SKOV3
Assay type: cell-based
EXPERIMENTAL CONDITIONS: Homo sapiens, SK-OV-3; Ovarian
Consider the following compounds and their measured IC50 readings.
Report the value in µM with no unit label.

O=C(/C=C/c1cccc(S(=O)(=O)Nc2ccccc2)c1)NO [Belinostat, reference compound]; 32.1

Tell me reported IC50 for O=C(CCCCSc1nc2ccccc2c(=O)n1Cc1ccc(F)cc1)NO , tested with SKOV3 cells.
4.5

====

TARGET: HDAC6 (Homo sapiens, UniProt Q9UBN7)
Construct: purchased PBS Biosciences [sic]
Sequence (Q9UBN7 whole entry): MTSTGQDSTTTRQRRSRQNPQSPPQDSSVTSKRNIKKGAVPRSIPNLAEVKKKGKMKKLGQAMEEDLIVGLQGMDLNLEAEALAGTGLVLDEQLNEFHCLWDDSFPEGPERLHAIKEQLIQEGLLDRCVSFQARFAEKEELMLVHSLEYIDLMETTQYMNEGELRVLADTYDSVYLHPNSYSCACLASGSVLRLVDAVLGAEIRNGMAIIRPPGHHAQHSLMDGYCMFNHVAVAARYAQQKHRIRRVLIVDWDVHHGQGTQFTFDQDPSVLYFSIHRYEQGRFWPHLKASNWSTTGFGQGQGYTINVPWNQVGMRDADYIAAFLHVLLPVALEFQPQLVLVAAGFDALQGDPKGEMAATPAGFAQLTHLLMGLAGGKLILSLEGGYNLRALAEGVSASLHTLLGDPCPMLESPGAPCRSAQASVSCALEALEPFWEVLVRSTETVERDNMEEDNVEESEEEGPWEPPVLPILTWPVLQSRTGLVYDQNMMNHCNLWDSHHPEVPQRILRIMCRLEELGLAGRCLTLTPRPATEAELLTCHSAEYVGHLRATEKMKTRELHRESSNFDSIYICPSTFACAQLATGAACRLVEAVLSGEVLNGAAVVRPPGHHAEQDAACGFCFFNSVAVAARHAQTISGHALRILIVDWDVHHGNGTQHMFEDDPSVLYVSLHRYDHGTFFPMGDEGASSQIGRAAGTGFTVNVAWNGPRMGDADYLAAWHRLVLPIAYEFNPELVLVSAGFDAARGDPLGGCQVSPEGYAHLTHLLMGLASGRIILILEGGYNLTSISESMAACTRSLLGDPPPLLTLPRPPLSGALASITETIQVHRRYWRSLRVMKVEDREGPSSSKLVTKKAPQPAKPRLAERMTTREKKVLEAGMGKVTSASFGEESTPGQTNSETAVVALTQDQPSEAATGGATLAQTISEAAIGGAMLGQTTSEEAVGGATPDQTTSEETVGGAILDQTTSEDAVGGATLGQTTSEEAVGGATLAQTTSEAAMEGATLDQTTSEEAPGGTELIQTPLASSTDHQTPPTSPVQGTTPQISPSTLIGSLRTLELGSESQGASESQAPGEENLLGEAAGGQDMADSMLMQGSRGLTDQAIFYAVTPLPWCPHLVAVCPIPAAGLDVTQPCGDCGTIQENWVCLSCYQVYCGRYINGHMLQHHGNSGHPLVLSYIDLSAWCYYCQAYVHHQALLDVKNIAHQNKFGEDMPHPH
RUN DESCRIPTION: HDAC enzyme inhibition assay, HDAC6
Format: biochemical
EXPERIMENTAL CONDITIONS: IC50 (µM) HDAC6 (Class IIb)
READOUT NAME: IC50 (µM)
Write the number in µM without appending the unit.

Which IC50 reading was recorded for the molecule O=C(/C=C/c1cccc(S(=O)(=O)Nc2ccccc2)c1)NO [Belinostat, reference compound] ?
0.2

====

# IC50 per entry
System: Hepa1c1c7 cells
RUN DESCRIPTION: Antiproliferation, Hepa1c1c7
Format: cell-based
EXPERIMENTAL CONDITIONS: Hepa-1c1c7; Liver
# unit: µM | format: bare number

O=C(/C=C/c1cccc(S(=O)(=O)Nc2ccccc2)c1)NO [Belinostat, reference compound]; 10.1

What value of measured IC50 is listed for O=C(CCCCSc1nc2ccccc2c(=O)n1Cc1ccc(F)cc1)NO ?
1.3
